- systemName: Cystic fibrosis transmembrane conductance regulator (Homo sapiens)
- assayProtocol: compounds raising F508del-CFTR protein level – cell-based, HeLa F508del-CFTR, immunofluorescence, viability, primary screen (AID 1224863);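 for fold increase: total CFTR protein by anti-CFTR immunofluorescence in fixed cells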
- reportedConditions: immunofluorescence total CFTR, 24 h; measured here: primary screen 10 ug/mL, library dosed in µg/mL, stronger effect = higher value unless noted
Among all 10,000 compounds or so, about 15 (0.1%) were called active. The list is a sample of the results.
Measured fold increase accompanies every entry in the list below.
observable: fold increase

> print(dat)
                                   compound     observable  testvalue
1            Cc1oc(C)c(C(=O)Nc2ncn[nH]2)c1C  fold increase       0.86
2  O=C1C2CCCCC2C(=O)N1CC(O)COCc1ccc2c(c1)OCO2 (stereo unspecified)  fold increase        1.1
3  Cc1c(C(=O)CN2C(=O)NC3(CCOc4ccccc43)C2=O)sc2ccccc12 (stereo unspecified)  fold increase       1.07
4                  Cc1cnc(NC(=O)COCC2CC2)s1  fold increase       1.01
5             CN(C)C(=O)c1ccc(N2CCOC2=O)cc1  fold increase       0.98
6  COc1ccc(S(=O)(=O)Nc2ccc(N3CCCC3)cc2)cc1OC  fold increase       0.85

----------
- assayProtocol: compounds raising F508del-CFTR protein level – cell-based, HeLa F508del-CFTR, immunofluorescence, viability, primary screen (AID 1224863)
- reportedConditions: immunofluorescence total CFTR, 24 h, stronger effect = higher value; measured here: primary viability 10 ug/mL, library dosed in µg/mL unless noted
Among all 10,000 compounds or so, about 15 (0.1%) were called active. These entries were drawn from the full list.
observable: viability (%)

> print(dat)
                                    compound  observable  testvalue
 1  O=C(NC1CCCCCC1)C1CC=CCC1 (centres undefined)   viability         96
 2  CC(c1nc(C(C)(C)C)no1)N1CCN(c2ccccc2F)CC1 (centres undefined)   viability         87
 3              CC(C)Cn1nnc(-c2ccc(Cl)cc2)n1   viability         99
 4  CS(=O)(=O)N1CCN(c2ccc(Br)cc2[N+](=O)[O-])CC1   viability        103
 5    Cc1cc(C)n2nc(SCC(=O)c3ccc(Br)cc3)nc2n1   viability         76
 6            Cc1oc(C)c(C(=O)Nc2ncn[nH]2)c1C   viability         86
 7  CN(C)S(=O)(=O)c1ccc(CN2C(=O)NC(C)(c3ccco3)C2=O)o1 (centres undefined)   viability         97
 8  CC1CCC2(CC1)NC(=O)N(CN1CCC(C(=O)c3ccc4c(c3)OCCO4)CC1)C2=O (centres undefined)   viability         97
 9  C#CCOc1ccc(CNC(C)c2ccc(Br)cc2)cc1OCC (centres undefined)   viability         76
10  CC(C(=O)NC1CCCCCC1)N1CCN(C(C)C(=O)NC2CC2)CC1 (centres undefined)   viability         95
11  COc1ccc(C)cc1-n1nnnc1SCC1CC1(Cl)Cl (centres undefined)   viability         86
12                   Cc1cn2nc(NC3CCCC3)sc2n1   viability         96
13  N#CCCN1CCN(C(=O)C23CC4CC(CC(C4)C2)C3)CC1   viability         86
14  CCCN(CC1CC1)C(=O)CSc1nc(C)nc2sc3c(c12)CCCC3   viability         81
15  Cc1nn(-c2ccccc2)c2c1CC(C#N)(c1nc3ccccc3s1)C1CCCN21 (centres undefined)   viability         89
16  CC1CCC(NC(=O)c2ccc([N+](=O)[O-])s2)CC1 (centres undefined)   viability         77
17     Cc1cccc2nc(CSc3ccc4ccccc4n3)cc(=O)n12   viability         83
18  Cc1nc(N2CCC(NS(C)(=O)=O)CC2)c2c3c(sc2n1)CCC3   viability         85
19  CC1(c2ccc3c(c2)OCO3)NC(=O)N(Cc2ccc3c(c2)OCO3)C1=O (centres undefined)   viability        100
20  O=[N+]([O-])c1cn(Cc2cn(-c3ccccc3)nc2-c2ccc(Cl)cc2)cn1   viability        103
21   FC(F)(F)c1cnc(Nc2ccc3c(c2)OCCO3)c(Cl)c1   viability         81
22  CCC1CCC2(CC1)NC(=O)N(CC(=O)NCC1CCCO1)C2=O (centres undefined)   viability        102
23  CC(OC(=O)C1=Cc2ccccc2OC1)C(=O)C12CC3CC(CC(C3)C1)C2 (centres undefined)   viability         91
24                            C=CCNCC(F)(F)F   viability         95
